system: UGT enzymes of human liver microsomes; assay: Inhibition of raloxifene glucuronidation (G1, G2) in human liver microsomes; format: biochemical
Property: % of control metabolism (SD, n = 3), raloxifene glucuronide G2; scope: individual molecules

I am curious: what % of control metabolism (SD, n = 3), raloxifene glucuronide G2 value has been reported for CCCCNC(=O)NS(=O)(=O)c1ccc(C)cc1 [Tolbutamide] ? 91 (2) %

I am curious: what % of control metabolism (SD, n = 3), raloxifene glucuronide G2 value has been reported for COc1ccc2cc([C@H](C)C(=O)O)ccc2c1 [Naproxen Free Acid] ? 78 (2) %

I am curious: what % of control metabolism (SD, n = 3), raloxifene glucuronide G2 value has been reported for CC(C)[C@@H]1CC[C@@H](C)C[C@H]1O[C@@H]1O[C@H](C(=O)O)[C@@H](O)[C@H](O)[C@H]1O [Menthol glucuronide] ? 84 (1) %

I am curious: what % of control metabolism (SD, n = 3), raloxifene glucuronide G2 value has been reported for CC(C)[C@@H]1CC[C@@H](C)C[C@H]1O ? 97 (2) %

I am curious: what % of control metabolism (SD, n = 3), raloxifene glucuronide G2 value has been reported for Cc1cn([C@H]2C[C@H](N=[N+]=[N-])[C@@H](CO)O2)c(=O)[nH]c1=O [Zidovudine, zidovudine, reference compound] ? 93 (1) %
